Target: JAK2 (Homo sapiens, UniProt O60674)
Construct: purchased Invitrogen
Sequence (O60674 whole entry): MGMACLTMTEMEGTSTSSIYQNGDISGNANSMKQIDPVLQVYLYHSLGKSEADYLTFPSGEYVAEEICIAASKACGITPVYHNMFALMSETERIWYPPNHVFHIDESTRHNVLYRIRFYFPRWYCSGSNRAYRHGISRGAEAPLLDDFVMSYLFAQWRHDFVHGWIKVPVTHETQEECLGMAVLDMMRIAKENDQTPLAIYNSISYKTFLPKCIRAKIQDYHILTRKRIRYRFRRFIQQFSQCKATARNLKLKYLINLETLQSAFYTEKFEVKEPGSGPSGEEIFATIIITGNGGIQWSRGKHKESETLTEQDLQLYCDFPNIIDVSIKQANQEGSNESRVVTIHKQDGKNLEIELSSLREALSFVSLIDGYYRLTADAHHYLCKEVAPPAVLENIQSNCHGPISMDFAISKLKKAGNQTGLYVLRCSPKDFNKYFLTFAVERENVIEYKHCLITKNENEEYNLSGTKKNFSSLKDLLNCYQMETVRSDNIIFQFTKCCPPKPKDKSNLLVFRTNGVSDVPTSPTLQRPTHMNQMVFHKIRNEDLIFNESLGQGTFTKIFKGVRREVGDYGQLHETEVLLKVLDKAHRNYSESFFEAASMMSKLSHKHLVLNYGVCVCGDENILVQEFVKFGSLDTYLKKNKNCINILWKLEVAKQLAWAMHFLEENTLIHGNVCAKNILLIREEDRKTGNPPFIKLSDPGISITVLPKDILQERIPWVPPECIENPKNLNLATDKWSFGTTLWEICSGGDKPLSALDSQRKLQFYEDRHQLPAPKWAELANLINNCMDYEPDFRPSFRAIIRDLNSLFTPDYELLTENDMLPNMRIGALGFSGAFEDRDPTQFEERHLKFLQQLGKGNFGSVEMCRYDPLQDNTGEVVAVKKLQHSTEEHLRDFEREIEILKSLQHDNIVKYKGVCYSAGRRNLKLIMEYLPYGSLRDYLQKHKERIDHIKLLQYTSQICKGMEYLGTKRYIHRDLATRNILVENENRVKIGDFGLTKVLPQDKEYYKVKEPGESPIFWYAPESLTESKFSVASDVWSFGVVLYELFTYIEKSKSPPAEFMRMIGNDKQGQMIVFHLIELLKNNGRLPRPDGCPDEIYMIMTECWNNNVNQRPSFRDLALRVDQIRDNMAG
Experiment: JAK2 enzyme inhibition test (LANCE method)
Format: biochemical
Conditions: 1 μM test compound; read-out: JAK2 enzyme inhibitory activity (%, 1 μM)
readout-type: inhibition at 1 µM (%)

>  <compound>
C[C@H](C1CC1)n1cc(-c2cc(C(C)(C)O)n(C)n2)c2[nH]nc(N)c2c1=O

>  <study-system>
JAK2 (Homo sapiens, UniProt O60674)

>  <readout-type>
inhibition at 1 µM

>  <output-unit>
%

>  <assay-value>
88

$$$$
>  <compound>
COCC(=O)N1CCN(c2cc(-c3cn([C@@H](C)C(C)C)c(=O)c4c(N)n[nH]c34)nn2C)CC1

>  <study-system>
JAK2 (Homo sapiens, UniProt O60674)

>  <readout-type>
inhibition at 1 µM

>  <output-unit>
%

>  <assay-value>
99

$$$$
>  <compound>
Cn1nc(-c2cn(-c3c(F)cccc3F)c(=O)c3c(N)n[nH]c23)cc1N1CCC(C#N)CC1

>  <study-system>
JAK2 (Homo sapiens, UniProt O60674)

>  <readout-type>
inhibition at 1 µM

>  <output-unit>
%

>  <assay-value>
99

$$$$
>  <compound>
Cn1nc(-c2cn(C3CCCC3(C)C)c(=O)c3c(N)n[nH]c23)cc1CN1CCS(=O)(=O)CC1 (stereo not shown) [Example 74]

>  <study-system>
JAK2 (Homo sapiens, UniProt O60674)

>  <readout-type>
inhibition at 1 µM

>  <output-unit>
%

>  <assay-value>
100

$$$$

---

Molecular target: JAK2 (Homo sapiens)
Construct: purchased Invitrogen
Assay: JAK2 enzyme inhibition test (LANCE method)
Type: biochemical
Settings: 1 μM test compound; read-out: JAK2 enzyme inhibitory activity (%, 1 μM)
readout-type: inhibition at 1 µM (%)

Examples with their reported inhibition at 1 µM follow.
>  <molecule>
CN1CCN(c2cc(-c3cn(C(C4CC4)C4CC4)c(=O)c4c(N)n[nH]c34)nn2C)CC1 [Example 149]

>  <study-system>
JAK2 (Homo sapiens)

>  <assay-value>
99

$$$$
>  <molecule>
CC(C)[C@H](C)n1cc(-c2cc(C(=O)N(C)C3CCCC3)n(C)n2)c2[nH]nc(N)c2c1=O [Example 50]

>  <study-system>
JAK2 (Homo sapiens)

>  <assay-value>
99

$$$$
>  <molecule>
CC(C)[C@H](C)n1cc(-c2cc(N3CCOC3=O)n(C)n2)c2[nH]nc(N)c2c1=O [Example 54]

>  <study-system>
JAK2 (Homo sapiens)

>  <assay-value>
98

$$$$

(I) CC(C)[C@H](C)n1cc(-c2cc(C3CCOCC3)n(C)n2)c2[nH]nc(N)c2c1=O [Example 58]
(II) CC(C)[C@H](C)n1cc(-c2cc(N3CCS(=O)(=O)CC3)n(CC(F)(F)F)n2)c2[nH]nc(N)c2c1=O [Example 29]
Hi team, can someone confirm which has the larger inhibition at 1 µM: I or II ? Thanks. Write down the label of the entry you select.
I
(I: 99%, II: 49%)

---

Target: TYK2 (Homo sapiens, UniProt P29597)
Construct: purchased Invitrogen
Sequence (P29597 whole entry): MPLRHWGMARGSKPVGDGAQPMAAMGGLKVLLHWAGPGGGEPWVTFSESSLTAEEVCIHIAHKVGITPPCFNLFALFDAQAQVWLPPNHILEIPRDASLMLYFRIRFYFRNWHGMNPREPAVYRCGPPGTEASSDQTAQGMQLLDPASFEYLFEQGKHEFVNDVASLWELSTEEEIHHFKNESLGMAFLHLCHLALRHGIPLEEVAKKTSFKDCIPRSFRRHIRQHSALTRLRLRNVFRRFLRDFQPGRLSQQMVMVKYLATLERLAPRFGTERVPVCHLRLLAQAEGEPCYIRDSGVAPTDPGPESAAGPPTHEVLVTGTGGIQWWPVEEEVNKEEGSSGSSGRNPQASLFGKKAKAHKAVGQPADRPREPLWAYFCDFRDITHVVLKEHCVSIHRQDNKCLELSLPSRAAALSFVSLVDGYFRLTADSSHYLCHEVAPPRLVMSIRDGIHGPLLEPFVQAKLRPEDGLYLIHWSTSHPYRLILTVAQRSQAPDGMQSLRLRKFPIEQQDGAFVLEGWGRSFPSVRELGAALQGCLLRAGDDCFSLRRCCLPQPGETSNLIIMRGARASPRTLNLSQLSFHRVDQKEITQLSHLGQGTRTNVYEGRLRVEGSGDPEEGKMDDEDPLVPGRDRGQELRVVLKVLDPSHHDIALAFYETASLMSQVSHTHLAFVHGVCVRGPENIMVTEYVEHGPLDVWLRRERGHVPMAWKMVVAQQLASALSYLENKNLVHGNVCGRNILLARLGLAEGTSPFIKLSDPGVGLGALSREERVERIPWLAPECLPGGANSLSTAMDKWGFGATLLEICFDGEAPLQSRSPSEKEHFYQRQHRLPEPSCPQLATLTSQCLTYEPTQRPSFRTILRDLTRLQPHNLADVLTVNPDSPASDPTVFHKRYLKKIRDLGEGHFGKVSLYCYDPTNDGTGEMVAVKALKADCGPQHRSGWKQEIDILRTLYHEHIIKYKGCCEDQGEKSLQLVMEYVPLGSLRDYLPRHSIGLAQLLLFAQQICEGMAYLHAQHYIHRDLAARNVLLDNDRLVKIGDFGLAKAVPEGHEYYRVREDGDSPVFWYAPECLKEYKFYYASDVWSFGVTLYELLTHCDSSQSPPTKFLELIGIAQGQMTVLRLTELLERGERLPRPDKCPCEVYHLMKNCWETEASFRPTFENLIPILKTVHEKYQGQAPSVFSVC
Assay: TYK2 enzyme inhibition test (LANCE method)
Format: biochemical
Details: 1 μM test compound; read-out: TYK2 enzyme inhibitory activity (%, 1 μM)
readout-type: inhibition at 1 µM (%)

>  <molecule>
Cn1nc(-c2cn(-c3c(F)cccc3C#N)c(=O)c3c(N)n[nH]c23)cc1C1=CCOCC1 [Example 68]

>  <output-unit>
%

>  <assay-value>
99

$$$$
>  <molecule>
Cn1nc(-c2cn(C(C3CC3)C3CC3)c(=O)c3c(N)n[nH]c23)cc1C1CC1 [Example 161]

>  <output-unit>
%

>  <assay-value>
100

$$$$
>  <molecule>
Cn1nc(-c2cn(-c3c(F)cccc3F)c(=O)c3c(N)n[nH]c23)cc1C(=O)N1CCOCC1 [Example 66]

>  <output-unit>
%

>  <assay-value>
100

$$$$
>  <molecule>
CC(C)[C@H](C)n1cc(-c2cc(N3CCN(C)CC3)n(C)n2)c2[nH]nc(N)c2c1=O [Example 10]

>  <output-unit>
%

>  <assay-value>
99

$$$$
>  <molecule>
Cn1nc(-c2cn(C(C3CC3)C3CC3)c(=O)c3c(N)n[nH]c23)cc1C(F)(F)F [Example 165]

>  <output-unit>
%

>  <assay-value>
100

$$$$
>  <molecule>
Cn1nc(-c2cn(C(C3CC3)C3CC3)c(=O)c3c(N)n[nH]c23)cc1N1CCN2CCC[C@H]2C1 [Example 162]

>  <output-unit>
%

>  <assay-value>
101

$$$$
>  <molecule>
Cn1nc(-c2cn(C(C3CC3)C3CC3)c(=O)c3c(N)n[nH]c23)cc1C1=CCCCC1 [Example 147]

>  <output-unit>
%

>  <assay-value>
110

$$$$
>  <molecule>
COCCN(C)C(=O)c1cc(-c2cn([C@@H](C)C(C)C)c(=O)c3c(N)n[nH]c23)nn1C [Example 46]

>  <output-unit>
%

>  <assay-value>
99

$$$$
>  <molecule>
COC1(c2cc(-c3cn(-c4c(F)cccc4F)c(=O)c4c(N)n[nH]c34)nn2C)CN(C(C)=O)C1 [Example 131]

>  <output-unit>
%

>  <assay-value>
100

$$$$
>  <molecule>
CNC[C@H]1CCCN1c1cc(-c2cn(C(C3CC3)C3CC3)c(=O)c3c(N)n[nH]c23)nn1C [Example 172]

>  <output-unit>
%

>  <assay-value>
98

$$$$
>  <molecule>
C[C@H](C1CC1)n1cc(-c2cc(N3CCC(C)(O)CC3)n(C)n2)c2[nH]nc(N)c2c1=O [Example 133]

>  <output-unit>
%

>  <assay-value>
99

$$$$
>  <molecule>
CC(C)[C@H](C)n1cc(-c2cc(N3CCS(=O)(=O)CC3)n(CC(F)(F)F)n2)c2[nH]nc(N)c2c1=O [Example 29]

>  <output-unit>
%

>  <assay-value>
93

$$$$
>  <molecule>
CN(C)C[C@H]1CCCN1c1cc(-c2cn(-c3c(F)cccc3F)c(=O)c3c(N)n[nH]c23)nn1C [Example 126]

>  <output-unit>
%

>  <assay-value>
98

$$$$

From: patent US9637483B2
